Test system: 883617-216-R-J1-PDC complex spheroid viability
Measurement Notes: Anticancer human tumor 883617-216-R-J1-PDC patient-derived bladder carcinoma cell line growth inhibition
Condition Notes: second compound 10 µM; first compound 0.003 µM; stronger effect = lower value
Measured Parameter: viability, T/C (%)
The reply should be a number in %, with the unit left off.

State its viability, T/C on 883617-216-R-J1-PDC complex spheroid viability: Nc1ncn(C2CC(O)C(CO)S2)c(=O)n1 (stereo unspecified) + NC1CC1c1ccc(-c2cccc(O)c2)cc1 76.7

State its viability, T/C on 883617-216-R-J1-PDC complex spheroid viability: Nc1ncn(C2CC(O)C(CO)S2)c(=O)n1 (stereo unspecified) + NC1CCC(NC2CC2c2ccccc2)CC1 114

State its viability, T/C on 883617-216-R-J1-PDC complex spheroid viability: Nc1ccn(C2OC(CO)C(O)C2(F)F)c(=O)n1 (stereo unspecified) + NC1CCC(NC2CC2c2ccccc2)CC1 20.6

State its viability, T/C on 883617-216-R-J1-PDC complex spheroid viability: CCc1c2c(nc3ccc(O)cc13)-c1cc3c(c(=O)n1C2)COC(=O)[C@]3(O)CC + NC1CC1c1ccc(-c2cccc(O)c2)cc1 19.7

State its viability, T/C on 883617-216-R-J1-PDC complex spheroid viability: CCc1c2c(nc3ccc(O)cc13)-c1cc3c(c(=O)n1C2)COC(=O)[C@]3(O)CC + NC1CCC(NC2CC2c2ccccc2)CC1 25.7

State its viability, T/C on 883617-216-R-J1-PDC complex spheroid viability: Nc1ccn(C2OC(CO)C(O)C2(F)F)c(=O)n1 (stereo unspecified) + NC1CC1c1ccc(-c2cccc(O)c2)cc1 27.2

###

Tested on: 883617-216-R-J1-PDC complex spheroid viability
Measurement Notes: Anticancer human tumor 883617-216-R-J1-PDC cell line growth inhibition;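 further: exposure lasted seven days after three days of spheroid growth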
Condition Notes: curve of first compound; second compound 10 µM
Text: Multicellular complex tumor spheroid response to LSD1 Inhibitor Iadademstat in combination with a variety of drugs and investigational agents in selected tumor cell lines The current study was undertaken to assess response to LSD1 inhibitors in combination with standard-of-care drugs and investigational agents in solid tumor complex spheroid models as well as in the K-562 leukemia. […] Compounds. […] If the clinical Cmax for an agent had not been determined, the highest concentration tested was 10 microM. […]
Measured Parameter: pIC50
Expect pIC50 as a plain number equal to -log10 of the molar concentration.

Some solved cases for reference:
CC1COCCN1c1cc(-c2ccnn2C)c2ccnc(-c3ccn[nH]3)c2n1 (centres undefined) + NC1CCC(NC2CC2c2ccccc2)CC1
7.34
O=C(C=Cc1cccc(S(=O)(=O)Nc2ccccc2)c1)NO + NC1CCC(NC2CC2c2ccccc2)CC1
6.91

# input for lookup
What value of pIC50 has been recorded for this entry: NS(=O)(=O)OCC1CC(n2ccc3c(NC4CCc5ccccc54)ncnc32)CC1O (centres undefined) + NC1CC1c1ccc(-c2cccc(O)c2)cc1 6.81

###

System: 883617-216-R-J1-PDC complex spheroid viability
Measurement Notes: Anticancer human tumor 883617-216-R-J1-PDC cell line growth inhibition;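 further: exposure lasted seven days after three days of spheroid growth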;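 on viability, T/C: 100% = DMSO vehicle control luminescence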
Condition Notes: second compound 10 µM; first compound 0.00949 µM; stronger effect = lower value
Measured Parameter: viability, T/C (%)
The reply should be a number in %, with the unit left off.

What value of viability, T/C has been recorded for this entry: O=C(C=Cc1cccc(S(=O)(=O)Nc2ccccc2)c1)NO + NC1CC1c1ccc(-c2cccc(O)c2)cc1 79.6

What value of viability, T/C has been recorded for this entry: O=C(C=Cc1cccc(S(=O)(=O)Nc2ccccc2)c1)NO + NC1CCC(NC2CC2c2ccccc2)CC1 99.5

What value of viability, T/C has been recorded for this entry: Nc1ccn(C2OC(CO)C(O)C2(F)F)c(=O)n1 (centres undefined) + NC1CCC(NC2CC2c2ccccc2)CC1 26.9

What value of viability, T/C has been recorded for this entry: CCN(c1cc(-c2ccc(CN3CCOCC3)cc2)cc(C(=O)NCc2c(C)cc(C)[nH]c2=O)c1C)C1CCOCC1 + NC1CCC(NC2CC2c2ccccc2)CC1 97.8
